FYI, the data here is from paper PMC10914727.

# tested system: GABAB receptor (GB1 subunit) (Rattus norvegicus, UniProt Q9Z0U4)
# Construct: gene Gabbr1; HA-tagged rat GB1 with Flag-tagged rat GB2 expressed in HEK293 cells; with GABAB2 (GB2)
# Sequence (Q9Z0U4 20-960): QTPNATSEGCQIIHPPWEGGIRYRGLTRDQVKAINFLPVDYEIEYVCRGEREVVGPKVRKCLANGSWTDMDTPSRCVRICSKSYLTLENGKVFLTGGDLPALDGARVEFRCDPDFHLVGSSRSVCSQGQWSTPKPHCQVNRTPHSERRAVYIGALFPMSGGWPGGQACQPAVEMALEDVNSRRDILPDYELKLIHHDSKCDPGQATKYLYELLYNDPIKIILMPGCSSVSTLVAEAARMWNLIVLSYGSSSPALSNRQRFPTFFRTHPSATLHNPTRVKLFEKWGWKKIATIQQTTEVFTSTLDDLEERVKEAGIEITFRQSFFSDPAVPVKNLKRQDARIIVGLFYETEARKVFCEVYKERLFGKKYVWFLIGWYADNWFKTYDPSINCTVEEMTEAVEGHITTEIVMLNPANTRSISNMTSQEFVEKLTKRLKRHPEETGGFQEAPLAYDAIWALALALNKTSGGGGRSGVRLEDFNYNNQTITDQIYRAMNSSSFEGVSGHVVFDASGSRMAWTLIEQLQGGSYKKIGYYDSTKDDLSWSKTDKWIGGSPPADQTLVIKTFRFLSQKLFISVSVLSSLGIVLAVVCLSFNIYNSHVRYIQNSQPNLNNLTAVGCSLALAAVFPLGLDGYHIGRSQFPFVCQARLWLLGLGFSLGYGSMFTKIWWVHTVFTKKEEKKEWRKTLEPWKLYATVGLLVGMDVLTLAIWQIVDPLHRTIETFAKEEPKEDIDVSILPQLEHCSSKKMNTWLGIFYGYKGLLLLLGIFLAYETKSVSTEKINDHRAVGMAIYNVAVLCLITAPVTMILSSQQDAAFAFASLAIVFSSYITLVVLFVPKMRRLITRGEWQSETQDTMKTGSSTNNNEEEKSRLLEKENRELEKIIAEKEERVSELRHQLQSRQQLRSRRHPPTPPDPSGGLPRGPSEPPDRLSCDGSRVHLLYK
# Sequence (O88871 41-940 partner): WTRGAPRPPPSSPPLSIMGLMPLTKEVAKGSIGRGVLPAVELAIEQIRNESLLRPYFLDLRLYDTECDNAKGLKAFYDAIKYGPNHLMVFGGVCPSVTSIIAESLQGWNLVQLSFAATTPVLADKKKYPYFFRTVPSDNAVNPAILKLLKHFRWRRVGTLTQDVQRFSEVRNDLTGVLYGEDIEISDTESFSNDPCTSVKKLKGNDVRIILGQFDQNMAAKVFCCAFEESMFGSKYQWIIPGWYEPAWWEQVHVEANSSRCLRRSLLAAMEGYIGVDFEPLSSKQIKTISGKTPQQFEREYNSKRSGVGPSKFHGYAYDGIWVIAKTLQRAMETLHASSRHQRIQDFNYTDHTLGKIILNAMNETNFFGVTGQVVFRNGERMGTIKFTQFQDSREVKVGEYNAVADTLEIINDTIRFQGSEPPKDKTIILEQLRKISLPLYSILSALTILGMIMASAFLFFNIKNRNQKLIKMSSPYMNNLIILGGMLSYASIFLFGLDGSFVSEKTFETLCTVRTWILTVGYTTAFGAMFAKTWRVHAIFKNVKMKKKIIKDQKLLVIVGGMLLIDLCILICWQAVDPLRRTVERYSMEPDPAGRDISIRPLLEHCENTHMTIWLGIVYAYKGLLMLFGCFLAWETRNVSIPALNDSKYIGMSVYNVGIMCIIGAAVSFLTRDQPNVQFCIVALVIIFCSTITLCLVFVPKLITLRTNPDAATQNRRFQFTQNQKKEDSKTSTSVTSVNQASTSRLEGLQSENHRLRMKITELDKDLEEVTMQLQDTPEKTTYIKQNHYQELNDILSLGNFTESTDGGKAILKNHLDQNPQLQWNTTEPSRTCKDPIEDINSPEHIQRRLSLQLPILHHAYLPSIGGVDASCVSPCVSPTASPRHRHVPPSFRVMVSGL
# protocol text: cell-based
# Parameters: species or system HEK293; BRET G protein sensor (Galpha-Nluc / Venus-Ggamma2), agonist-induced change of BRET
# test parameters: pEC50 HEK293, Gi1 sensor
quantity kind: EC50 (nM)
Quick reminder: number only, in nM, skip the unit.

Exercise: Query the reported EC50 for GABAB receptor (GB1 subunit) (Rattus norvegicus, UniProt Q9Z0U4); item: NCCC[PH](=O)O
Key: 21.4
